# System: Hs-578T
# METHOD SUMMARY: NCI tumour cell line growth inhibition, 48 h
The source made the active and inactive calls. Rule as the data show it: active = GI50 up to about 1.1 µM and inactive = higher.
I'd be grateful if you could share measured GI50 for these entries.

[
  {
    "MOLECULE": "COc1ccc(OC)c(C2CCc3c(cnc4nc(N)nc(N)c34)C2)c1 (stereo not drawn)",
    "ASSAY SYSTEM": "Hs-578T",
    "GI50": "15.7 µM (inactive)"
  },
  {
    "MOLECULE": "CSc1[nH]cnc1C(N)=S",
    "ASSAY SYSTEM": "Hs-578T",
    "GI50": "> 100 µM (inactive)"
  },
  {
    "MOLECULE": "CCOC(=O)c1ccc2c(=O)n3c(C(=O)OCC)ccc3c(=O)n12",
    "ASSAY SYSTEM": "Hs-578T",
    "GI50": "> 100 µM (inactive)"
  },
  {
    "MOLECULE": "O=C1/C(=C/c2ccccc2)NC(=S)N1CN1CCCCC1",
    "ASSAY SYSTEM": "Hs-578T",
    "GI50": "> 100 µM (inactive)"
  },
  {
    "MOLECULE": "O=c1c2c(nc3[nH]ccn13)CCC2",
    "ASSAY SYSTEM": "Hs-578T",
    "GI50": "> 10 µM (inactive)"
  }
]

Would you mind giving GI50 for every molecule in the list below?
1. COc1ccc(C2OC[C@H]3O[C@@H](OCc4ccccc4)[C@H](O)[C@@H](O)[C@@H]3O2)cc1 (stereo partly drawn)
2. N#Cc1c(Nc2ccccc2)[n+]([O-])c2ccc(Cl)cc2[n+]1[O-]
3. Nc1nc(N)c2ncn(-c3ccccc3)c2n1

Key:
1. 55.5 µM (inactive)
2. 16.6 µM (inactive)
3. 52.6 µM (inactive)
